The origin of these recorded values is PubChem BioAssay (NCI).

Assay: NCI Yeast Anticancer Drug Screen. Data for the mlh1 rad18 strain (AID 175)
Settings: S. cerevisiae mlh1 rad18 strain growth inhibition; at 50.0 µM; stronger effect = higher value
This is part of a sample that, as a whole, favours compounds with a hit. Of some 79,000 tested, about 15% had one in any assay.
Exercise: state measured growth inhibition for each of the molecules provided.
All answers are understood in %, so give the number only.

# lookup: growth inhibition of O=[N+]([O-])c1ccc(SC(=S)N2CCCCC2)c([N+](=O)[O-])c1
98.9

Param item = O=C1NC(=S)S/C1=C\c1ccc(F)cc1 ; retrieve measured growth inhibition.
80.3

Endpoint output: growth inhibition of Cc1c2ccncc2c(C)c2c1sc1ccccc12 . Value?
83.3

Entry Cc1ccc(/C=N/NS(=O)(=O)c2ccccc2)c(C)c1 has what growth inhibition?
36.9

// query growth inhibition value for entry O=C(N/C(=C\c1cc(Cl)ccc1Cl)c1nc2ccc(Cl)cc2[nH]1)c1ccccc1
96.5

Give its growth inhibition value. Item: Cc1ccc(C)c(C(=O)/C=C/C(=O)O)c1
65.1

Record request: growth inhibition value, item CS(=O)(=O)OCCN(CCOS(C)(=O)=O)c1ccc(C=Nc2ccc3ccccc3c2)c(Cl)c1
66

Name the reported growth inhibition value associated with the molecule CC1CC2(C)ON=C(c3ccccc3)N2c2ccccc2S1 (stereo unspecified)
83.7

Could you share which growth inhibition value was measured for C[n+]1c(/C=C\c2ccccc2)sc2ccccc21 ?
87

What value of measured growth inhibition is listed for S=P([S][Sn]([S]P(=S)(c1ccccc1)c1ccccc1)([c]1ccccc1)[c]1ccccc1)(c1ccccc1)c1ccccc1 ?
77.8

So what does the record say about growth inhibition for COC1(OC)C(C#N)(C#N)C2(C(=O)Nc3ccccc32)C1(OC)OC (stereo unspecified) ?
90

Fill in the blank: the reported growth inhibition of O=C(c1ccc(Cl)cc1)C1N=NCC1c1ccccc1 (stereo unspecified) is ____.
43

Any idea what its growth inhibition is? The molecule is Cc1ccc(N2C(=O)CCSC2=S)cc1C
95.4

// query growth inhibition value for entry O=C1CCC(O)N1CN1C(=O)CCC1O (stereo unspecified)
46.5

Entry COc1ccccc1C(=O)[O][Sn]([c]1ccccc1)([c]1ccccc1)[c]1ccccc1 : reported growth inhibition = ?
98.7

What growth inhibition value was documented for this molecule, Cc1ccccc1C(O)(c1ccccc1C)C1(O)CCN(C)CC1 ?
98.7

What value of growth inhibition has been reported for the following molecule? COc1cc2c(c(-c3cn(C)c4ccccc34)c1OC)OCO2
41.9

# get_value(readout='growth inhibition', item= O=c1cccccc1[O-].O=c1cccccc1[O-].O=c1cccccc1[O-].[Ce+3] )
88.5

Sample O=C(Nc1ncnc2c1ncn2C1CC(O)C(CO)O1)c1ccccc1 (stereo unspecified) — what was its growth inhibition?
-17.8

# query: growth inhibition of entry CN(C)CC1CCc2c(ccc3ccccc23)C1=O (stereo unspecified)
53.8

Quick one: growth inhibition of O=C(Nc1ccccc1Cl)c1cccnc1 ?
4.45

Need growth inhibition, item Nc1ccc(C(=O)N/C(=C\C=C\c2ccco2)c2nc3c4c(ccc3[nH]2)C(=O)c2ccccc2C4=O)cc1
90.5

What does the record list as growth inhibition for O=c1nc(-c2ccccc2)cc(-c2ccccc2O)[nH]1 ?
33.5

Give the measured growth inhibition of CCCCC(CC)CNc1ncnc2c1cnn2C (stereo unspecified) .
32.8

Name the reported growth inhibition value associated with the molecule CCNC(=S)N/N=C(\C)c1cccc(C)n1
37.2

Endpoint output: growth inhibition of COc1ccc2c(c1)C=C([N+](=O)[O-])C(C1OC(C)(C)OC1C1COC(C)(C)O1)O2 (stereo unspecified) . Value?
19.8

I have this molecule here, N#C/C=C/C=C/C#N , and I need its recorded growth inhibition.
56.3

Given the entry Cc1cc(N)c2cc(OCCOc3ccc4nc(C)cc(N)c4c3)ccc2n1 , report its measured growth inhibition.
95.2

Look up growth inhibition for this molecule: N#C/C(=C\NC(=S)C(N)=S)c1nc2ccccc2s1
85.5

// query growth inhibition value for entry COc1ccc2c(c1)CCCN2CCCCCCCCCN1CCCCC1
69

State the recorded growth inhibition for this entry: Oc1ccccc1C(c1cc2c(cc1O)OCO2)N1CCOCC1 (stereo unspecified)
91.9

For the molecule CCCCN(CCO)CC(O)Cn1cnc2c(N)ncnc21 (stereo unspecified) (tested in a mixture with another compound) , what growth inhibition is on record?
25.9

Which growth inhibition value is on record for CCC(C)COC(=O)c1ccc([N+](=O)[O-])cc1 (stereo unspecified) ?
89.3

Bench note: what growth inhibition did N#CC(C(=O)C(=O)Nc1cccc(C(F)(F)F)c1)c1ccccc1 (stereo unspecified) show?
12.7

// growth inhibition lookup, key: CC(=O)Oc1c([N+](=O)[O-])cc(-c2ccccc2)cc1[N+](=O)[O-]
84.6

Request the reported growth inhibition associated with CC(=O)CC(C)=NCCN=C(C)CC(C)=O.[Pd]
83.7

What does the data say about its growth inhibition? Entry: O=C(/C(=C\I)c1ccccc1)c1ccccc1
86.7

What measured growth inhibition goes with N#Cc1ccccc1[N+](=O)[O-] ?
79.5

Using the record for CCCCCCCCCCCCCCCCN[Si](NCCCCCCCCCCCCCCCC)(NCCCCCCCCCCCCCCCC)NCCCCCCCCCCCCCCCC , report its growth inhibition.
83.9

Any idea what its growth inhibition is? The molecule is CCOc1c(N=Nc2ccccc2OC)c(-c2ccccc2)nn1C(N)=S
53.4

State the recorded growth inhibition for this entry: O=C1/C(=C/c2ccc3c(c2)OCO3)Sc2scc(-c3ccc(O)c(O)c3)[n+]21
90.8

What does the data say about its growth inhibition? Entry: CCOc1ccccc1C(=O)Nc1cc(C)nn1-c1ccccc1
99.5

I'd like to know its growth inhibition. The molecule in question is O=C(CNS(=O)(=O)Cc1ccccc1)NCC(=O)NNc1ccccc1
81.7

Which measured growth inhibition value corresponds to O=C1C(c2ccc([N+](=O)[O-])cc2)=C(Cl)C(=O)c2c(O)cccc21 ?
45.4

Field request: growth inhibition | item: COCc1ccc([N+](=O)[O-])o1
66.2

Recorded growth inhibition of CN(C)Cc1ccc2[nH]c3c(c2c1)CCCC3 , please.
65.1
